# TARGET_SYSTEM: PFKL (Homo sapiens, UniProt P17858)
# Construct: endogenous in cells; host or cells: HEK293T
# Sequence (P17858 1-780): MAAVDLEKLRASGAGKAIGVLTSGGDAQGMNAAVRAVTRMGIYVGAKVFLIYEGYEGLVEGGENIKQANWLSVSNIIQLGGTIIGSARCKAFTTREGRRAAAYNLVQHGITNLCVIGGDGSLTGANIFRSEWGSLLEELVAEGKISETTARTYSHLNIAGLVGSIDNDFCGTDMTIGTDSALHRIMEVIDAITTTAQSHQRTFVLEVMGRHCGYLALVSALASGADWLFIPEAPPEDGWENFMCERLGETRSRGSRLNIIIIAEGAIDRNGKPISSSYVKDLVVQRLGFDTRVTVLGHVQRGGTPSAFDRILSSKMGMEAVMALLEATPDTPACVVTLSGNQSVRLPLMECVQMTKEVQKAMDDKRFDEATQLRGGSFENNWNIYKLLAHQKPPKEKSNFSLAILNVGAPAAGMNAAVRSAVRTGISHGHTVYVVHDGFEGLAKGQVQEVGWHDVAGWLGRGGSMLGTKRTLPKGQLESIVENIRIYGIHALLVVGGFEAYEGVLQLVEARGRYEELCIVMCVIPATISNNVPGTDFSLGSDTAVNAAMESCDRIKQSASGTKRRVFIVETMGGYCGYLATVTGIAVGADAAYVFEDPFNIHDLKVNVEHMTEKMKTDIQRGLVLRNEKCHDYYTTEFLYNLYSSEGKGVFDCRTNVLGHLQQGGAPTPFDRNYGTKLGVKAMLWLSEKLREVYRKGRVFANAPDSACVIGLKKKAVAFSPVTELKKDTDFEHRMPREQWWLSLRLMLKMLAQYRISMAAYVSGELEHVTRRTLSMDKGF
# TEST_PROTOCOL: SILAC competitive chemical proteomic assay (TH211 probe, LC-MS/MS)
# Assay type: cell-based
# DETAILS: HEK293T in situ, vehicle (light) vs inhibitor 2 μM (heavy) 1 hr, then TH211 50 μM 2 h; protein/site not given
READOUT_KIND: SILAC ratios (SR) from competitive chemical proteomic assay
When you answer, write just the number.

Recorded SILAC ratios (SR) from competitive chemical proteomic assay, per entry:
O=S(=O)(c1ccc(F)cc1)n1cc(CCN2CCC(=C(c3ccc(F)cc3)c3ccc(F)cc3)CC2)nn1 [TH221]    2.48
O=S(=O)(C1CC1)n1cc(CCN2CCC(=C(c3ccc(F)cc3)c3ccc(F)cc3)CC2)nn1 [TH223]    0.95
Cc1ccc(S(=O)(=O)n2cc(CCN3CCC(=C(c4ccc(F)cc4)c4ccc(F)cc4)CC3)nn2)cc1 [TH207]    3.41
Cc1ccc(S(=O)(=O)n2cc(CCN3CCN(C(c4ccc(F)cc4)c4ccc(F)cc4)CC3)nn2)cc1 [TH208]    1.04

Next item in the queue.
Which SILAC ratios (SR) from competitive chemical proteomic assay reading was recorded for the compound COc1ccc(S(=O)(=O)n2cc(CCN3CCC(=C(c4ccc(F)cc4)c4ccc(F)cc4)CC3)nn2)cc1 ?
8.41

Data provenance is patent US20240400542A1.
